The next entries give measured pIC50 for UniProtKB P35968.
Answer as the number alone; pIC50 is minus log10 of concentration in mol/L.

Problem: Consider the compound O=C(Nc1cc2ccccc2cn1)c1cc(F)ccc1NCc1ccncc1 [Example 2.63] and give its recorded pIC50.
Solution: 9.52

Problem: Supply reported pIC50 belonging to this compound: O=C(Nc1ccc2[nH]nnc2c1)c1ccccc1NCc1ccncc1 [Example 8.15]
Solution: 6.70

Problem: Hello, please tell me recorded pIC50 for this one: O=C(Nc1nc2ccc(OC(F)(F)F)cc2s1)c1ccccc1NCc1ccncc1 [Example 8.9]
Solution: 6.30

Problem: Supply recorded pIC50 for O=C(Nc1ccc2cn[nH]c2c1)c1ccccc1NCc1ccncc1 [Example 8.10] here.
Solution: 7.70

Problem: Identify measured pIC50 associated with O=C(Nc1nc2c(Cl)cccc2s1)c1ccccc1NCc1ccncc1 [Example 8.17]
Solution: 7.30

====

ASSAY TARGET: VEGFR I (FLT) (Homo sapiens)
EXPERIMENT: Inhibition of FLT-1 kinase activity (33P-ATP, poly-(Glu4Tyr) phosphocellulose filter assay)
Format: biochemical
MEASUREMENT SETUP: 10 minutes at room temperature, KH = keine Hemmung = No inhibition
REPORTED METRIC: pIC50
# reply with the number alone; pIC50 is -log10 of concentration in mol/L

Problem: GET pIC50 | system: VEGFR I (FLT) (Homo sapiens) | item: "O=C(Nc1nccc2ccccc12)c1ccccc1NCc1ccncc1"
Solution: 7.00

Problem: Please tell me the measured pIC50 for "O=C(N[C@H]1CCCc2ccccc21)c1ccccc1NCc1ccncc1" ; system: VEGFR I (FLT) (Homo sapiens).
Solution: 7.00

Problem: For VEGFR I (FLT) (Homo sapiens), give pIC50 of the listed compound: CC(CNC(=O)c1ccccc1NCc1ccncc1)c1ccc(Cl)cc1 (centres unmarked)
Solution: 7.00

Problem: Tell me its pIC50 on VEGFR I (FLT) (Homo sapiens): "O=C(Nc1ccccn1)c1ccccc1NCc1ccncc1"
Solution: 6.70

Problem: Report measured pIC50 on VEGFR I (FLT) (Homo sapiens); entry: "O=C(Nc1ccc2ncccc2c1)c1ccccc1NCc1ccncc1"
Solution: 7.30

Problem: # assay system VEGFR I (FLT) (Homo sapiens): give pIC50 of "O=C(Nc1cccnc1)c1ccccc1NCc1ccncc1"
Solution: 6.30

Problem: Determine reported pIC50 for "O=C(Nc1ccc2[nH]nnc2c1)c1ccccc1NCc1ccncc1" ; test system: VEGFR I (FLT) (Homo sapiens).
Solution: 6.70

Problem: Enter measured pIC50, system VEGFR I (FLT) (Homo sapiens), for the compound shown: O=C(NC1CCCc2ccccc21)c1ccccc1NCc1ccncc1 (centres unmarked)
Solution: 6.15

Problem: State pIC50 on VEGFR I (FLT) (Homo sapiens). Entry: "O=C(NC1Cc2ccccc2C1)c1ccccc1NCc1ccncc1"
Solution: 7.00

Problem: Write down measured pIC50 (VEGFR I (FLT) (Homo sapiens)) for this compound. "O=C(N[C@@H]1CCCc2ccccc21)c1ccccc1NCc1ccncc1"
Solution: 6.30

Problem: Under VEGFR I (FLT) (Homo sapiens): report pIC50 of "O=C(Nc1ccncc1)c1ccccc1NCc1ccncc1" .
Solution: 6.70

Problem: // fetch pIC50 for "O=C(Nc1cc(-c2ccccc2)[nH]n1)c1ccccc1NCc1ccncc1" ; system: VEGFR I (FLT) (Homo sapiens)
Solution: 7.70

Problem: # lookup: VEGFR I (FLT) (Homo sapiens) pIC50, key = "O=C(Nc1ncc(Cl)cn1)c1ccccc1NCc1ccncc1"
Solution: 7.70

Problem: Report pIC50 on VEGFR I (FLT) (Homo sapiens) for this entry: "O=C(Nc1nc2ccccc2[nH]1)c1ccccc1NCc1ccncc1"
Solution: 6.70

Problem: Find pIC50 for "O=C(Nc1nc2ccc(OC(F)(F)F)cc2s1)c1ccccc1NCc1ccncc1" on VEGFR I (FLT) (Homo sapiens) and write it down.
Solution: 6.30

Problem: Specify pIC50 for CC(NC(=O)c1ccccc1NCc1ccncc1)c1cccc2ccccc12 (centres unmarked) , system VEGFR I (FLT) (Homo sapiens).
Solution: 6.15

Problem: Tell me its pIC50 on VEGFR I (FLT) (Homo sapiens): O=C(NC1CCc2cc(Cl)ccc21)c1ccccc1NCc1ccncc1 (centres unmarked)
Solution: 5.40

====

// values below are IC50; system is VEGFR II (KDR) (Homo sapiens, UniProt P35968)
Sequence (P35968 20-1356, species assumed): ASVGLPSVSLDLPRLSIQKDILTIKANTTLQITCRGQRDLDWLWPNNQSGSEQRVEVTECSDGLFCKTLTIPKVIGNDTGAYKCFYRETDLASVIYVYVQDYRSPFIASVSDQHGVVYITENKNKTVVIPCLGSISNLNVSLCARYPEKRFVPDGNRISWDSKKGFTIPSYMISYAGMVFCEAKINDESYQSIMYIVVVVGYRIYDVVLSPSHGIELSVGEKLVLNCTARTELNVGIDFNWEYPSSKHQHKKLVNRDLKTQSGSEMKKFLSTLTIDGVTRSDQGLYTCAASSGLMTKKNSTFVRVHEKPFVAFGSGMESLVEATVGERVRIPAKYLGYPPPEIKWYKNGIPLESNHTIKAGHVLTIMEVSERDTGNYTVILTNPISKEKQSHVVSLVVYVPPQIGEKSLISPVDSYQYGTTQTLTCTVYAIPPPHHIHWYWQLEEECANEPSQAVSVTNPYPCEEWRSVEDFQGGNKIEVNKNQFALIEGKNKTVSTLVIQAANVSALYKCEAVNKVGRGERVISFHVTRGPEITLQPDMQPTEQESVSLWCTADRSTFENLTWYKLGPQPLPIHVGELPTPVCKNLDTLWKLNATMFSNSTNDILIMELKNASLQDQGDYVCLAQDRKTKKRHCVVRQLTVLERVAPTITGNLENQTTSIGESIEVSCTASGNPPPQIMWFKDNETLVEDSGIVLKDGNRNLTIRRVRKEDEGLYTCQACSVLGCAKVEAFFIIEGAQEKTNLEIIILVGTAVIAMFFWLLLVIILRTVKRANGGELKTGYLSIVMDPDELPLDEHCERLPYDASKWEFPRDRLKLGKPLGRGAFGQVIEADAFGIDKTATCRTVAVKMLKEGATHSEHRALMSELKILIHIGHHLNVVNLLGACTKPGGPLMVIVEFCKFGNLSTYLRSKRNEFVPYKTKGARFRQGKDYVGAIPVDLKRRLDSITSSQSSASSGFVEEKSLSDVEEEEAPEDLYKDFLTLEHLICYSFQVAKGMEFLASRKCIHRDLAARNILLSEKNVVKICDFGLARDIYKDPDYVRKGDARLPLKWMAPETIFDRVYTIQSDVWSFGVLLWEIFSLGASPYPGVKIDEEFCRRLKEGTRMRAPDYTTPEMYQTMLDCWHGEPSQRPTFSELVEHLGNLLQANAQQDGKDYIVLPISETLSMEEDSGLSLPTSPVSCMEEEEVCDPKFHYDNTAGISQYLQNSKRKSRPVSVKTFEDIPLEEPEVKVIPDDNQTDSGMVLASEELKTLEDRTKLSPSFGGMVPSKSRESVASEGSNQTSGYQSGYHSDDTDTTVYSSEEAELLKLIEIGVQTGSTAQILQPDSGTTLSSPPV
Expressed in nM, but write only the number.

Problem: Fill in IC50 for "COc1ccc(CCNC(=O)c2ccccc2NCc2ccncc2)cc1OC" tested with VEGFR II (KDR) (Homo sapiens, UniProt P35968).
Solution: 300

Problem: Quote IC50 with test system VEGFR II (KDR) (Homo sapiens, UniProt P35968) for "O=C(NCc1cccs1)c1ccccc1NCc1ccncc1"
Solution: 2000

Problem: Answer briefly: IC50 recorded on VEGFR II (KDR) (Homo sapiens, UniProt P35968) for "O=C(Nc1nc2ccccc2[nH]1)c1ccccc1NCc1ccncc1"
Solution: 200

Problem: Answer with IC50 of "O=C(NCCc1ccc(Cl)cc1)c1ccccc1NCc1ccc(O)cc1" measured for VEGFR II (KDR) (Homo sapiens, UniProt P35968).
Solution: 200

Problem: Provide IC50, system VEGFR II (KDR) (Homo sapiens, UniProt P35968), entry "O=C(Nc1ccc(Cl)cn1)c1ccccc1NCc1ccncc1"
Solution: 30

Problem: Determine reported IC50 for "O=C(NCc1cccc2ccccc12)c1ccccc1NCc1ccncc1" ; test system: VEGFR II (KDR) (Homo sapiens, UniProt P35968).
Solution: 200

Problem: Please respond with reported IC50 (system VEGFR II (KDR) (Homo sapiens, UniProt P35968)) for "O=C(Nc1nccc2ccccc12)c1ccccc1NCc1ccncc1" .
Solution: 270

Problem: Give VEGFR II (KDR) (Homo sapiens, UniProt P35968) IC50 for the following molecule: "O=C(NC1Cc2ccccc2C1)c1ccccc1NCc1ccncc1"
Solution: 500

Problem: State IC50 on VEGFR II (KDR) (Homo sapiens, UniProt P35968). Entry: CC(NC(=O)c1ccccc1NCc1ccncc1)c1cccc2ccccc12 (stereo not shown)
Solution: 3000

Problem: For VEGFR II (KDR) (Homo sapiens, UniProt P35968), give the measured IC50 of the entry "COc1ccc(CNc2ccccc2C(=O)NCc2ccc(Cl)cc2)cc1"
Solution: 3000

====

Can you tell me IC50 for the items I'm about to list?
Write the value in nM as a bare number.

Problem: Write down measured IC50 (VEGFR II (KDR) (Homo sapiens)) for this compound. "O=C(NNc1ccc(Cl)cc1)c1ccccc1NCc1ccncc1"
Solution: 100

Problem: Give the observed IC50 of "O=C(Nc1ccc2ncsc2c1)c1ccccc1NCc1ccncc1" for VEGFR II (KDR) (Homo sapiens).
Solution: 20

Problem: Recall the reported IC50 of O=C(NC1CCCc2ccccc21)c1ccccc1NCc1ccncc1 (stereo not drawn) on VEGFR II (KDR) (Homo sapiens) and write it down.
Solution: 3000

Problem: Fill: IC50 (VEGFR II (KDR) (Homo sapiens)) for this compound CC(CNC(=O)c1ccccc1NCc1ccncc1)c1ccc(Cl)cc1 (stereo not drawn)
Solution: 200

Problem: # lookup: VEGFR II (KDR) (Homo sapiens) IC50, key = "O=C(Nc1ccc2c(c1)NCCC2)c1ccccc1NCc1ccncc1"
Solution: 50

Problem: Identify measured IC50 obtained with VEGFR II (KDR) (Homo sapiens) for "O=C(Nc1nnc(C(F)(F)F)s1)c1ccccc1NCc1ccncc1" .
Solution: 300

Problem: State IC50 (VEGFR II (KDR) (Homo sapiens)) of "O=C(Nc1cc(-c2ccccc2)[nH]n1)c1ccccc1NCc1ccncc1" .
Solution: 50

Problem: Please tell me the measured IC50 for "O=C(Nc1cccc2cccnc12)c1ccccc1NCc1ccncc1" ; system: VEGFR II (KDR) (Homo sapiens).
Solution: 100

Problem: Name the recorded IC50 of "O=C(Nc1cccc2ncccc12)c1ccccc1NCc1ccncc1" , assay system VEGFR II (KDR) (Homo sapiens).
Solution: 200

====

ASSAY TARGET: VEGFR I (FLT) (Homo sapiens, UniProt P17948)
Sequence (P17948 27-1338, species assumed): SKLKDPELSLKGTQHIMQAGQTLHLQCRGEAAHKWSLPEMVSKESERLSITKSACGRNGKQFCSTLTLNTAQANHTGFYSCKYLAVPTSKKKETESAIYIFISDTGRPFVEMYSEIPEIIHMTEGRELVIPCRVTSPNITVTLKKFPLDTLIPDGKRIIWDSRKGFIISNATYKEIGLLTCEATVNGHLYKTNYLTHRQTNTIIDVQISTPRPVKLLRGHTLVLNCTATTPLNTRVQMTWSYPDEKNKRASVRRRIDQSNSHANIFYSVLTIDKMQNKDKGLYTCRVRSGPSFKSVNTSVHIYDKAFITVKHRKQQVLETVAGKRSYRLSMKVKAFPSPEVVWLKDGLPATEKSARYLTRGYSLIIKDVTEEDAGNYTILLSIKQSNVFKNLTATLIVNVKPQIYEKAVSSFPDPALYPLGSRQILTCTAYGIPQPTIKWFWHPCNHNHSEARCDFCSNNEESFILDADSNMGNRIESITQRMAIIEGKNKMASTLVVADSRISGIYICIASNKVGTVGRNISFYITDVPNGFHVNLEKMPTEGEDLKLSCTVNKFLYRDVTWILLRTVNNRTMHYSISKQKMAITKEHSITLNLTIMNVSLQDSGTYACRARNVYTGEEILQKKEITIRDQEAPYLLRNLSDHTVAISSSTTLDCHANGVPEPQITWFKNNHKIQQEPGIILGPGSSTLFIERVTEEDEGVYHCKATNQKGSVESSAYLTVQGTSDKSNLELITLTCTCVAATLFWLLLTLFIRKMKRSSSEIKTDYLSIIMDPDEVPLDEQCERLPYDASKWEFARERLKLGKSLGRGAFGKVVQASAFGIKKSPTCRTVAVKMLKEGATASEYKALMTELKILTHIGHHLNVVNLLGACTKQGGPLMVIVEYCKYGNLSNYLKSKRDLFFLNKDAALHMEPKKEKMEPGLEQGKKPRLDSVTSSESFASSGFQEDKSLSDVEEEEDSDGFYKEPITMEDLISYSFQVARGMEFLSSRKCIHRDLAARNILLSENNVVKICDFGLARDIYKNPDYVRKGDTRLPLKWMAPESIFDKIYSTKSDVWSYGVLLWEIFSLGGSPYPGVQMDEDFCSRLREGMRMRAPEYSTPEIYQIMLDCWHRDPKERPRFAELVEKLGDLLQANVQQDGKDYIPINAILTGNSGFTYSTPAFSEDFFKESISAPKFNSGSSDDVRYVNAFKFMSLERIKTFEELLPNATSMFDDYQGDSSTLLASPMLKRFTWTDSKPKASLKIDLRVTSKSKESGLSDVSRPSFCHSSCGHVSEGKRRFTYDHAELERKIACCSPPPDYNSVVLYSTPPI
pIC50: −log10 of the molar value.
Hi, to clarify the labels: Yes covers pIC50 from 7 upward, No covers anything below 7.

Problem: Assess whether reported pIC50 for "O=C(NCc1ccc(Cl)cc1)c1ccccc1NCc1ccncc1" sits at 7 or higher.
Solution: Yes

Problem: Decide: pIC50 of "O=C(Nc1nc2ccc(Cl)cc2s1)c1ccccc1NCc1ccncc1" >= 7?
Solution: No

Problem: hey, is pIC50 for this one >= 7? "O=C(Nc1ccc2[nH]ncc2c1)c1ccccc1NCc1ccncc1"
Solution: Yes

Problem: Say whether COc1cc2c(cc1OC)CC(NC(=O)c1ccccc1NCc1ccncc1)CC2 (stereo not drawn) shows pIC50 of 7 or more.
Solution: No

Problem: Decide: is the reported value of pIC50 for "O=C(Nc1ccc2nsnc2c1)c1ccccc1NCc1ccncc1" equal to or greater than 7?
Solution: Yes

Problem: Record "O=C(Nc1cc2ccccc2cn1)c1ccccc1NCc1ccncc1" ; criterion: pIC50 no lower than 7. Met?
Solution: Yes

Problem: Hello, I need to know if "O=C(Nc1cccc2cnccc12)c1ccccc1NCc1ccncc1" has measured pIC50 not below 7. Thanks!
Solution: No
